Where do these numbers come from? They come from the Deep4Chem optical property database.

- PROTOCOL SUMMARY: solvent given as SMILES
- DETAILS: in CO
Recorded absorption maximum, one value per entry.
Please give a number only; it is taken to be in nm.

[
  {
    "MOLECULE": "O=C1c2ccccc2C(=O)N1c1ccc(Cn2cncn2)cc1",
    "absorption maximum, nm": 312
  },
  {
    "MOLECULE": "O=C(O)c1ccc(-c2cnc(-c3ccc(N(c4ccccc4)c4ccccc4)cc3)s2)cc1",
    "absorption maximum, nm": 387
  },
  {
    "MOLECULE": "COc1cc(/C=C2/SC(=O)NC2=O)ccc1O",
    "absorption maximum, nm": 355
  },
  {
    "MOLECULE": "CCCSC1=[N+]2C(=C(c3ccccc3)c3ccc(SCCC)n3[B-]2(F)F)C=C1",
    "absorption maximum, nm": 574
  },
  {
    "MOLECULE": "CC1=C2C=CC(C)=[N+]2[B-](F)(F)n2cccc21",
    "absorption maximum, nm": 494
  }
]

Query molecule follows.
For c1ccc(-c2nc(-c3ccccc3)c(-c3ccccc3)[nH]2)cc1 , what is its reported absorption maximum? 311.5

* * *

Recorded absorption maximum, one value per entry.
- PROTOCOL SUMMARY: solvent given as SMILES
- DETAILS: in ClCCl
Please give a number only; it is taken to be in nm.

Example entries begin here.
[
  {
    "MOLECULE": "COC(=O)c1cc(=O)n(C)c2cc(-c3ccc(N4CCN(C)CC4)cc3)sc12",
    "READOUT KIND": "absorption maximum",
    "NUMERIC RESULT": 420
  },
  {
    "MOLECULE": "CCCCCCN1C(=O)c2cccc3c(-c4ccc(-c5cc(-c6ccc(OC)cc6)n(-c6ccccc6)n5)s4)ccc(c23)C1=O",
    "READOUT KIND": "absorption maximum",
    "NUMERIC RESULT": 403
  },
  {
    "MOLECULE": "O=C1c2ccccc2-c2c(-c3cc(Cl)ccc3O)[nH]c(=O)n21",
    "READOUT KIND": "absorption maximum",
    "NUMERIC RESULT": 395
  }
]

For Cc1cccc2[n+]1[B-](c1ccccc1)(c1ccccc1)c1cccc3c4c5c(cccc5c-2c13)[B-](c1ccccc1)(c1ccccc1)[n+]1c(C)cccc1-4 , what is its reported absorption maximum? 542

* * *

- PROTOCOL SUMMARY: solvent given as SMILES
- DETAILS: in Cc1ccccc1
Recorded absorption maximum, one value per entry.
Please give a number only; it is taken to be in nm.

Example entries begin here.
[
  {
    "COMPOUND": "CN(C)c1ccc(C2=Nc3sc4c(F)c(F)c(F)c(F)c4[n+]3[B-](F)(F)O2)cc1",
    "absorption maximum / nm": 431
  },
  {
    "COMPOUND": "CCCCN1c2ccccc2Sc2cc(/C=C/C3=Nc4ccc5ccccc5c4C3(C)C)ccc21",
    "absorption maximum / nm": 423
  },
  {
    "COMPOUND": "CC(C)(C)c1ccc2c(c1)Sc1cc(C(C)(C)C)ccc1N2c1ccc2c(ccc3nc4ccc5cc(N6c7ccc(C(C)(C)C)cc7Sc7cc(C(C)(C)C)ccc76)ccc5c4nc32)c1",
    "absorption maximum / nm": 451
  },
  {
    "COMPOUND": "CC1(C)c2cc(C#N)ccc2-c2ccc(N3c4ccccc4Oc4ccccc43)cc21",
    "absorption maximum / nm": 390
  },
  {
    "COMPOUND": "CC(C)(C)c1ccc2c(c1)[nH]c1c3[nH]c4cc(C(C)(C)C)ccc4c3c3nsnc3c21",
    "absorption maximum / nm": 406
  },
  {
    "COMPOUND": "CC(C)(C)c1ccc2c(c1)sc1[n+]2[B-](F)(F)n2c(c3cccc4c(Br)ccc2c43)=N1",
    "absorption maximum / nm": 498
  },
  {
    "COMPOUND": "CC(C)(C)c1ccc2c(c1)c1cc(C(C)(C)C)cc3c1n2-c1cc(-c2ccc(F)cc2)cc2c1B3c1cc(C(C)(C)C)cc3c4cc(C(C)(C)C)ccc4n-2c13",
    "absorption maximum / nm": 469.92
  },
  {
    "COMPOUND": "Cc1ccc(C2=C3C=CC(Cl)=[N+]3[B-](F)(F)n3c(Cl)ccc32)cc1",
    "absorption maximum / nm": 516
  },
  {
    "COMPOUND": "CCCC1=Cc2nc1ccc1[nH]c(cc1CCC)c1nc(c3ccccc3c3[nH]c2cc3CCC)C(CCC)=C1",
    "absorption maximum / nm": 762
  },
  {
    "COMPOUND": "c1ccc(-c2c3c(c(-c4ccccc4)c4cc5ccccc5cc24)Cc2c(c(-c4ccccc4)c4cc5ccccc5cc4c2-c2ccccc2)C3)cc1",
    "absorption maximum / nm": 391
  }
]

For O=c1oc2ccc(Br)cc2cc1-c1cc2cc(Br)ccc2o1 , what is its reported absorption maximum? 377

Try this compound next: CCN(CC)c1ccc([N+]2=Cc3ccc4c5c(ccc4c3O[B-]2(c2ccccc2)c2ccccc2)C=[N+](c2ccc([N+](=O)[O-])cc2)[B-](c2ccccc2)(c2ccccc2)O5)cc1 555

Try this compound next: FC(F)(F)C(F)(F)C(F)(F)C1=NC2=C(c3ccc4ccc5cccc6ccc3c4c56)C=C3c4cc(-c5ccc6ccc7cccc8ccc5c6c78)c5nc(C(F)(F)C(F)(F)C(F)(F)F)nc6c(-c7ccc8ccc9cccc%10ccc7c8c9%10)cc(c4c56)=C4C=C(c5ccc6ccc7cccc8ccc5c6c78)C(=N1)C2C34 (centres undefined) 560

Try this compound next: CC(C)(C)c1cc(-c2c3cccc4c5cccc6c(-c7cc(C(C)(C)C)cc(C(C)(C)C)c7)c7cccc8c9cccc2c9c(c34)c(c65)c78)cc(C(C)(C)C)c1 687

* * *

- PROTOCOL SUMMARY: solvent given as SMILES
- DETAILS: in C1CCCCC1
READOUT KIND: absorption maximum
Phrase the answer as number then unit, nothing more needed.

Example entries begin here.
[
  {
    "MOLECULE": "CCCC[Si](C)(C)c1cccc2ccccc12",
    "absorption maximum": "294 nm"
  },
  {
    "MOLECULE": "CN(C)c1ccc(-c2nc3cccnc3[nH]2)cc1",
    "absorption maximum": "351 nm"
  },
  {
    "MOLECULE": "CCN(CC)c1ccc2c(C)cc(=O)oc2c1",
    "absorption maximum": "350 nm"
  },
  {
    "MOLECULE": "COc1cc(/C=C2/SC(=O)NC2=O)ccc1O",
    "absorption maximum": "348 nm"
  },
  {
    "MOLECULE": "N#Cc1ccc(N(c2ccc(C#N)cc2)c2ccc3c4cccc5c(N(c6ccc(C#N)cc6)c6ccc(C#N)cc6)ccc(c6cccc2c63)c54)cc1",
    "absorption maximum": "446 nm"
  }
]

For COC(=O)C(Cc1ccc2oc(-c3ccc(N(C)C)cc3)nc2c1)NC(=O)OC(C)(C)C (configuration not stated) , what is its reported absorption maximum? 335.1 nm

Try this molecule next: CCc1c(C)c2n(c1C)[B-](F)(F)[N+]1=C(C=C3C=Cc4ccccc43)C=CC1=C2C 591 nm

Try this molecule next: COc1ccc2c3c(c4ccc(OC)cc4c2c1)C(C)(C)c1sccc1-3 391 nm

Try this molecule next: CN(C)CCNCc1c2ccccc2cc2ccccc12 368 nm

Try this molecule next: Cc1ccccc1-c1ccccc1C 260.08 nm

Try this molecule next: Cc1cc(O)c(C(C)C)cc1/N=C/c1ccc(O)cc1 339 nm

Try this molecule next: CCCCc1cc2cccc[n+]2[b-]2c(-c3cccc4[b-]3[n+]3ccccc3cc4CCCC)cccc21 446 nm

Try this molecule next: CCOC(=O)c1cc(C)n2nc(-c3ccccc3)ccc12 390 nm

* * *

- PROTOCOL SUMMARY: solvent given as SMILES
- DETAILS: in Cc1ccccc1
Label condition met for high-side absorption maximum (at or above 400 nm) and condition not met for low-side absorption maximum (below it).

Some solved entries appear below for comparison.
[
  {
    "MOLECULE": "CC(=O)c1ccc2ccc3cccc4ccc1c2c34",
    "CLASS ASSIGNMENT": "condition not met"
  },
  {
    "MOLECULE": "N#Cc1nc(-n2c3ccccc3c3ccccc32)cc(-n2c3ccccc3c3ccccc32)n1",
    "CLASS ASSIGNMENT": "condition not met"
  },
  {
    "MOLECULE": "CCOC(=O)COc1ccc(/C=C/C2=C3c4ccccc4C(c4[nH]c(C)cc4C)=[N+]3[B-](F)(F)n3c(C)cc(C)c32)cc1",
    "CLASS ASSIGNMENT": "condition met"
  }
]

Is reported absorption maximum greater than or equal to 400 nm here: CCc1c(C)[nH]c(C2=[N+]3C(=Cc4c(C)c(CC)c(C)n4[B-]3(F)F)c3ccccc32)c1C condition met

Try this molecule next: CC(C)(C)c1ccc2c(c1)c1cc3c4cc(C(C)(C)C)ccc4c4c5c6ccc(C(C)(C)C)cc6c6cc7c8cc(C(C)(C)C)ccc8c8c2c1c(c34)c(c78)c65 condition met

Try this molecule next: CCC1=C(C)C2=C(c3c4ccccc4c(-c4ccccc4)c4ccccc34)c3c(C)c(CC)c(C)n3[B-](F)(F)[N+]2=C1C condition met

Try this molecule next: CCc1c(C)[nH]c(C2=[N+]3C(=Cc4c(C)c(CC)c(/C=C/c5ccc(N(C)C)cc5)n4[B-]3(F)F)c3ccccc32)c1C condition met

Try this molecule next: CC1=[N+]2C(=C(c3ccc(C#N)cc3)c3ccc(C)n3[B-]2(F)F)C=C1 condition met

Try this molecule next: COc1cccc(C2=CC3=C(c4c(C)cc(C)cc4C)c4cc(-c5cccc(OC)c5)c(-c5cccc(OC)c5)n4[B-](F)(F)[N+]3=C2c2cccc(OC)c2)c1 condition met

Try this molecule next: O=Cc1ccc(N(c2ccc(C=O)cc2)c2ccc(-c3ccc4c(c3)C(=O)c3ccccc3C4=O)cc2)cc1 condition not met

Try this molecule next: CCN(CC)c1ccc2cc(/C=C/C(=C(C#N)C#N)c3ccc(N(c4ccccc4)c4ccccc4)cc3)c(=O)oc2c1 condition met

Try this molecule next: CN(C)c1ccc(C2=Nc3sc4ccccc4[n+]3[B-](F)(F)O2)cc1 condition met

Try this molecule next: FC(F)(F)c1cc2n(n1)[B-]1(c3ccccc3Oc3ccccc31)[n+]1ccc3ccccc3c1-2 condition not met
